We begin with a simple list: items and their reported cell viability z-score within plate.
Tested on: FLX1
Protocol: cell viability z-score within plate (CellTiter-Glo), mean of 3 biological replicates; higher = higher viability relative to plate (less growth inhibition)
Condition label: 2 µM; time (hr): 120
Enter a number only.

Below, 5 compounds whose answers are already recorded.
Ask: So what's the measured cell viability z-score within plate for this one? Cc1cc([C@@H](C)Nc2ccccc2C(=O)O)c2nc(N3CCOCC3)cc(=O)n2c1
Result: -2.82

Ask: So what's the measured cell viability z-score within plate for this one? C=CC(=O)Nc1ccc2ncnc(Nc3ccc(OCc4cccc(F)c4)c(Cl)c3)c2c1
Result: 0.819

Ask: So what's the measured cell viability z-score within plate for this one? COc1cc(Nc2ncc(F)c(Nc3ccc4c(n3)N(COP(=O)(O)O)C(=O)C(C)(C)O4)n2)cc(OC)c1OC [Fostamatinib (R788)]
Result: 0.458

Ask: So what's the measured cell viability z-score within plate for this one? CC(C)(C)c1cc(/C=C(\C#N)C(N)=S)cc(C(C)(C)C)c1O
Result: 0.585

Ask: So what's the measured cell viability z-score within plate for this one? Oc1ccc(Nc2nc(-c3ccc(Cl)cc3)cs2)cc1
Result: 0.219

Others:
Ask: So what's the measured cell viability z-score within plate for this one? CN1CCN(c2ccc3nc(-c4c(N)c5c(F)cccc5[nH]c4=O)[nH]c3c2)CC1
Result: 0.442

Ask: So what's the measured cell viability z-score within plate for this one? CCN(CC)CCCCNc1ncc2cc(-c3cc(OC)cc(OC)c3)c(NC(=O)NC(C)(C)C)nc2n1
Result: -0.321

Ask: So what's the measured cell viability z-score within plate for this one? CCCCCCCCCCCCc1ccc(S(=O)(=O)Nc2nncs2)cc1
Result: 1.17

Ask: So what's the measured cell viability z-score within plate for this one? CNc1nc(Nc2cn(C(C)(C)C#N)nc2C)ncc1C(F)(F)F
Result: 0.707

Ask: So what's the measured cell viability z-score within plate for this one? NCC(=O)Nc1ccc(-n2nc(C(F)(F)F)cc2-c2ccc3c(ccc4ccccc43)c2)cc1
Result: 0.225
